testProtocol: Biodistribution studies in mice (radioiodinated compounds, % ID/g-tissue)
Type: in vivo
experimentalContext: mouse, blood, iv, blood, 60', tracer level, but MDTA-Na 0.18M and MDTA-NMG 0.19M, read-out: Biodistribution, Blood 60'
tissue uptake at 1 h less than 0.1 %ID/g is true; tissue uptake at 1 h greater than or equal to 0.1 %ID/g is false.

Here's an entry: CC(=O)N(C)c1c(I)c(C(=O)Nc2ccc(CC(=O)O)cc2)c(I)c(N(C)C(C)=O)c1I . Is its tissue uptake at 1 h below 0.1 %ID/g?
true

Would you mind doing CC(=O)N(C)c1c(I)c(C(=O)O)c(I)c(N(C)C(C)=O)c1I as well?
false

Consider next the compound CC(=O)N(C)c1c(I)c(C(=O)Nc2ccc(CCCCCCCCCCC(=O)O)cc2)c(I)c(N(C)C(C)=O)c1I in the same way.
true

What would you report for CC(=O)N(C)c1c(I)c(C(=O)NCC(=O)O)c(I)c(N(C)C(C)=O)c1I ?
true

Cool, now CC(=O)N(C)c1c(I)c(C(=O)NCCCCCCC(=O)O)c(I)c(N(C)C(C)=O)c1I
true

Another compound to look at: CC(=O)N(C)c1c(I)c(C(=O)NCCCC(=O)O)c(I)c(N(C)C(C)=O)c1I
false

Next compound: CC(=O)N(C)c1c(I)c(C(=O)Nc2ccc(CCCCCCCCCCCCCCCCCCC(=O)O)cc2)c(I)c(N(C)C(C)=O)c1I
false

====

testProtocol: Biodistribution studies in mice (radioiodinated compounds, % ID/g-tissue)
Type: in vivo
experimentalContext: mouse, blood, iv, blood, 5', tracer level, but MDTA-Na 0.18M and MDTA-NMG 0.19M, read-out: Biodistribution, Blood 5'
assayReadout: tissue uptake at 5 min (%ID/g)
State just the number; it will be interpreted in %ID/g.

For CC(=O)N(C)c1c(I)c(C(=O)NCC(=O)O)c(I)c(N(C)C(C)=O)c1I [Example F2-DP-MDTA] , what is its reported tissue uptake at 5 min?
0.81

Same question, CC(=O)N(C)c1c(I)c(C(=O)Nc2ccc(CCCCCCCCCCC(=O)O)cc2)c(I)c(N(C)C(C)=O)c1I [Example F11-P-MDTA] this time
0.74

Try this compound too: CC(=O)N(C)c1c(I)c(C(=O)Nc2ccc(CCCC(=O)O)cc2)c(I)c(N(C)C(C)=O)c1I [Example F4-P-MDTA]
0.57

====

testProtocol: Biodistribution studies in mice (radioiodinated compounds, % ID/g-tissue)
Format: in vivo
experimentalContext: mouse, small/large intestine, iv, small/large intestine, 5', tracer level, but MDTA-Na 0.18M and MDTA-NMG 0.19M, read-out: Biodistribution, Sm/Lrg. Intestine 5'
Please provide measured tissue uptake at 5 min for the entries that follow.
Please respond with the number in %ID/g and leave the unit unwritten.

Report tissue uptake at 5 min for CC(=O)N(C)c1c(I)c(C(=O)Nc2ccc(CCCCCCCCCCC(=O)O)cc2)c(I)c(N(C)C(C)=O)c1I please.
3.06

// next record CC(=O)N(C)c1c(I)c(C(=O)Nc2ccc(CCCC(=O)O)cc2)c(I)c(N(C)C(C)=O)c1I
4.56

Item: CC(=O)N(C)c1c(I)c(C(=O)NCCCCCCC(=O)O)c(I)c(N(C)C(C)=O)c1I
14.5

Record: CC(=O)N(C)c1c(I)c(C(=O)Nc2ccc(CC(=O)O)cc2)c(I)c(N(C)C(C)=O)c1I
9.54
